Test: in vivo
Details: mouse, po, 1 mg/kg
reported.property: Tmax at 24 h (h)
State just the number; it will be interpreted in h.

Problem: Determine its reported Tmax at 24 h: Cc1nc(N2CCOCC2)ccc1N(CC(C)C)S(=O)(=O)c1ccc2c(c1)C(=O)CC(C1CCOCC1)O2 (stereo unspecified)
Solution: 1.59

* * *

Test: Metabolic stability in human liver microsomes assessed as parent compound remaining level at 10 uM in presence of NADPH incubated for 60 mins by HPLC-MS/MS analysis
remaining at 1 h, 10 µM vs 10%: less than gives Satisfied; not less than gives Not satisfied.

Solved entries (count: 5):
compound	category
CCc1ccc(N(CC2CC2)S(=O)(=O)c2ccc3c(c2)C(=O)CC(C2CCOCC2)O3)cc1 (stereo unspecified)	Not satisfied
Cc1ccc(N(C2CCC2)S(=O)(=O)c2ccc3c(c2)C(=O)CC(C2CCOCC2)O3)c(C)c1 (stereo unspecified)	Satisfied
CCc1ccc(N(CC(C)C)S(=O)(=O)c2ccc(OCC3CCOCC3)c(CO)c2)cc1 [GSK2981278]	Satisfied
CC(C)CN(c1ccc(F)cc1)S(=O)(=O)c1ccc2c(c1)C(=O)CC(C1CCOCC1)O2 (stereo unspecified)	Satisfied
CC(C)CN(c1ccc(N(C)C)cc1)S(=O)(=O)c1ccc2c(c1)C(=O)CC(C1CCOCC1)O2 (stereo unspecified)	Not satisfied

# ---- query compound ----
Problem: Given Cc1nc(N2CCOCC2)ccc1N(CC(C)C)S(=O)(=O)c1ccc2c(c1)C(=O)CC(C1CCOCC1)O2 (stereo unspecified) , is recorded remaining at 1 h, 10 µM strictly lower than 10%?
Solution: Not satisfied

* * *

Experiment: in vivo
Conditions: mouse, po, 1 mg/kg
reported.property: Cmax at 24 h (ng/mL)
Please state the figure in ng/mL; there is no need to write the unit.

Problem: Name the recorded Cmax at 24 h of the compound listed here: Cc1nc(N2CCOCC2)ccc1N(CC(C)C)S(=O)(=O)c1ccc2c(c1)C(=O)CC(C1CCOCC1)O2 (stereo unspecified)
Solution: 82

* * *

Experiment: in vivo
Settings: mouse, iv, 0.3 mg/kg
reported.property: AUC(0-t) at 24 h (ng·h/mL)
// units = ng·h/mL; emit number, no label

Problem: Hello, please tell me recorded AUC(0-t) at 24 h for this one: Cc1nc(N2CCOCC2)ccc1N(CC(C)C)S(=O)(=O)c1ccc2c(c1)C(=O)CC(C1CCOCC1)O2 (stereo unspecified)
Solution: 135

* * *

Test: in vivo
Details: mouse, po, 1 mg/kg
reported.property: AUC(0-t) at 24 h (ng·h/mL)
Report as a plain number; the unit ng·h/mL is understood.

Problem: Return reported AUC(0-t) at 24 h. Input compound: Cc1nc(N2CCOCC2)ccc1N(CC(C)C)S(=O)(=O)c1ccc2c(c1)C(=O)CC(C1CCOCC1)O2 (stereo unspecified)
Solution: 212

* * *

Assay: in vivo
Settings: mouse, iv, 0.3 mg/kg
reported.property: Vd at 24 h (L/kg)
Please respond with the number in L/kg and leave the unit unwritten.

Problem: Indicate its recorded Vd at 24 h; the compound in question is Cc1nc(N2CCOCC2)ccc1N(CC(C)C)S(=O)(=O)c1ccc2c(c1)C(=O)CC(C1CCOCC1)O2 (stereo unspecified)
Solution: 1.62

* * *

Assay: in vitro
Details: human, liver microsomes
Description: Metabolic stability in human liver microsomes assessed as intrinsic clearance at 10 uM in presence of NADPH by HPLC-MS/MS analysis
Measured CLint scaled at 10 µM accompanies every entry in the list below.
Numbers only here, please. The scale is mL/min/kg.

Some molecules with recorded CLint scaled at 10 µM:
molecule	scale.unit	CLint scaled at 10 µM
CCc1ccc(N(CC(C)C)S(=O)(=O)c2ccc(OCC3CCOCC3)c(CO)c2)cc1	mL/min/kg	1610
CC(C)CN(c1ccc(N(C)C)cc1)S(=O)(=O)c1ccc2c(c1)C(=O)CC(C1CCOCC1)O2 (stereo unspecified)	mL/min/kg	98.5
Cc1ccc(N(C2CCC2)S(=O)(=O)c2ccc3c(c2)C(=O)CC(C2CCOCC2)O3)c(C)c1 (stereo unspecified)	mL/min/kg	202
CC(C)CN(c1ccc(F)cc1)S(=O)(=O)c1ccc2c(c1)C(=O)CC(C1CCOCC1)O2 (stereo unspecified)	mL/min/kg	1760
CCc1ccc(N(CC2CC2)S(=O)(=O)c2ccc3c(c2)C(=O)CC(C2CCOCC2)O3)cc1 (stereo unspecified)	mL/min/kg	55.8

// next item, CLint scaled at 10 µM requested
Problem: Using the record for Cc1nc(N2CCOCC2)ccc1N(CC(C)C)S(=O)(=O)c1ccc2c(c1)C(=O)CC(C1CCOCC1)O2 (stereo unspecified) , state its measured CLint scaled at 10 µM.
Solution: 21.1

* * *

Test: Lipophilicity, logD of the compound at pH 7.4
Conditions: buffer
reported.property: logD

compound	measured.value
Cc1ccc(NS(=O)(=O)c2ccc3c(c2)C(=O)CC(C2CCOCC2)O3)c(C)c1 (stereo not drawn)	2.75
Cc1nc(N2CCOCC2)ccc1N(CC(C)C)S(=O)(=O)c1ccc2c(c1)C(=O)CC(C1CCOCC1)O2 (stereo not drawn)	3.04

Problem: Provide measured logD value, entry: CCc1ccc(N(CC(C)C)S(=O)(=O)c2ccc3c(c2)C(=O)CC(C2CCN(C(=O)C4CCCC4)CC2)O3)cc1 (stereo not drawn)
Solution: 5.13

Problem: Report logD for CCc1ccc2c(c1)CC(C)CN2S(=O)(=O)c1ccc2c(c1)C(=O)CC(C1CCOCC1)O2 (stereo not drawn)
Solution: 3.77

Problem: Give the reported value of logD for this record: CCc1ccc(N(CC(C)C)S(=O)(=O)c2ccc(OCC3CCOCC3)c3c2CCCC3=O)cc1
Solution: 4.84

Problem: Specify logD for CC(C)CN(C1CCc2ccc(F)cc21)S(=O)(=O)c1ccc2c(c1)C(=O)CC(C1CCOCC1)O2 (stereo not drawn) and stop.
Solution: 4.03

Problem: Item CCc1ccc(N(CC(C)C)S(=O)(=O)c2ccc3cc(OCC4CCOCC4)c(C(=O)O)cc3c2)cc1 : provide logD
Solution: 1.77

Problem: Answer with the recorded logD for the compound listed here: CC(C)CN(c1ccc(F)cc1F)S(=O)(=O)c1ccc2c(c1)C(=O)CC(C1CCOCC1)O2 (stereo not drawn)
Solution: 3.62

* * *

Assay: Lipophilicity, logD of the compound at pH 7.4
Conditions: buffer
Lab note: compare logD against 4. Equal or greater, write fulfilled. Smaller, write not fulfilled.

Take a look at these entries with their results.
molecule	category
CCc1ccc(N(CC(C)C)S(=O)(=O)c2ccc3c(c2)C(=O)CC(C(C)C2CCOCC2)O3)cc1 (stereo not drawn)	fulfilled
CC(C)CN(c1cccc(F)c1)S(=O)(=O)c1ccc2c(c1)C(=O)CC(C1CCOCC1)O2 (stereo not drawn)	not fulfilled
CCc1ccc(N(CC(C)C)S(=O)(=O)c2ccc3cc(OCC4CCOCC4)c(C(=O)OCC4CCOCC4)cc3c2)cc1	fulfilled
CCc1ccc(N(CC(C)C)S(=O)(=O)c2ccc3oc(C4CCOCC4)cc(=O)c3c2)cc1	fulfilled
CCc1ccc(N(CC(C)C)S(=O)(=O)c2ccc3c(c2)C(=O)N(C2CCOCC2)C3)cc1	not fulfilled

Problem: Decide: logD of CCc1ccc(N(CC(C)C)S(=O)(=O)c2ccc3c(c2)C(=O)CC(C2CCN(S(C)(=O)=O)CC2)O3)cc1 (stereo not drawn) >= 4?
Solution: not fulfilled

Problem: Evaluate CC(C)CN(c1ccc(C#N)cc1)S(=O)(=O)c1ccc2c(c1)C(=O)CC(C1CCOCC1)O2 (stereo not drawn) : logD at minimum 4?
Solution: not fulfilled

Problem: # check: logD of O=C1CC(C2CCOCC2)Oc2ccc(S(=O)(=O)N3CCCC3c3ccccc3C(F)(F)F)cc21 (stereo not drawn) is greater than or equal to 4
Solution: not fulfilled

* * *

Assay: in vivo
Settings: mouse, iv, 0.3 mg/kg
reported.property: clearance at 24 h

Problem: Provide only the value of recorded clearance at 24 h for Cc1nc(N2CCOCC2)ccc1N(CC(C)C)S(=O)(=O)c1ccc2c(c1)C(=O)CC(C1CCOCC1)O2 (stereo unspecified)
Solution: 1.81 L/h/kg

* * *

Experiment: in vivo
Conditions: mouse, iv, 0.3 mg/kg
reported.property: AUC(0-inf) at 24 h (ng·h/mL)
Return type: number; implicit unit ng·h/mL.

Problem: Quick one: give measured AUC(0-inf) at 24 h for Cc1nc(N2CCOCC2)ccc1N(CC(C)C)S(=O)(=O)c1ccc2c(c1)C(=O)CC(C1CCOCC1)O2 (stereo unspecified)
Solution: 140

* * *

Experiment: in vivo
Conditions: mouse, iv, 0.3 mg/kg
reported.property: Cmax at 24 h (ng/mL)
Report only the number, with the unit ng/mL understood.

Problem: Please give the documented Cmax at 24 h of Cc1nc(N2CCOCC2)ccc1N(CC(C)C)S(=O)(=O)c1ccc2c(c1)C(=O)CC(C1CCOCC1)O2 (stereo unspecified)
Solution: 75

* * *

Test: in vivo
Settings: mouse, po, 1 mg/kg
reported.property: bioavailability at 24 h (%)
Field: numeric (%). Do not append units.

Problem: Look up and state reported bioavailability at 24 h for Cc1nc(N2CCOCC2)ccc1N(CC(C)C)S(=O)(=O)c1ccc2c(c1)C(=O)CC(C1CCOCC1)O2 (stereo unspecified)
Solution: 47
